For each entry below, report its Percent Effect value.
System: Wolbachia pipientis
Assay: Anti-Wolbachia Cell-Based Screen
Assay type: functional
Parameters: scale not given: in the data most compounds retested in dose-response had high values
Settings: 5 µM
In all, about 48,000 compounds went through this assay and about 13,000 (27%) showed an effect of 50% or more. The list shows a part of the results.
Field: numeric (%). Do not append units.

Input line: Param item = COC(=O)N1CCC(NC(=O)c2cc(S(N)(=O)=O)ccc2C)CC1 ; retrieve measured Percent Effect.
Output line: 98.52

Input line: Param item = Cc1c(NCc2ccccc2C#N)cccc1-n1cnnn1 ; retrieve measured Percent Effect.
Output line: 4.013

Input line: Param item = COCC(O)CN1CCC(NC(=O)c2cscc2C)CC1 (stereo not drawn) ; retrieve measured Percent Effect.
Output line: -6.433

Input line: Param item = CCO[C@H]1CC[C@H]2[C@H]1OCCN2C(=O)c1nn(C)c2ccccc12 ; retrieve measured Percent Effect.
Output line: 108.7

Input line: Param item = CCc1ccc(O)c(C(=O)NC2CCN(S(=O)(=O)CC)CC2)c1 ; retrieve measured Percent Effect.
Output line: -4.06

Input line: Param item = CCO[C@@H]1CC[C@H]2[C@H]1OCCN2C(=O)c1nn(C)c2ccccc12 ; retrieve measured Percent Effect.
Output line: 106.4

Input line: Param item = Cc1ccc(C(=O)N2CCO[C@H]3[C@@H](OCc4ccccn4)CC[C@@H]32)o1.O=C(O)C(F)(F)F ; retrieve measured Percent Effect.
Output line: -5.404

Input line: Param item = COCCC(=O)N1CCC(NC(=O)c2cscc2C)CC1 ; retrieve measured Percent Effect.
Output line: 4.5

Input line: Param item = O=C(NC1CCN(C2CC2)CC1)c1cc(Cl)ccc1-n1cnnn1 ; retrieve measured Percent Effect.
Output line: -15.3

Input line: Param item = O=C(NCC(O)c1ccccc1Cl)c1cccc(-n2cnnn2)c1 (stereo not drawn) ; retrieve measured Percent Effect.
Output line: -6.148

Input line: Param item = Cc1nc(N2CCN(C(=O)c3cccs3)CC2)cc(-n2cccc2)n1 ; retrieve measured Percent Effect.
Output line: 0.4402

Input line: Param item = Cn1cnnc1C1CCCN(C(=O)c2cnc3ccccc3n2)C1 (stereo not drawn) ; retrieve measured Percent Effect.
Output line: -5.928

Input line: Param item = COc1ccnc(CN(C)C(=O)CSc2nnc(N)s2)c1 ; retrieve measured Percent Effect.
Output line: 0.9714

Input line: Param item = CCc1noc(CS(=O)(=O)CC(=O)N2c3ccccc3CC2C)n1 (stereo not drawn) ; retrieve measured Percent Effect.
Output line: 1.089

Input line: Param item = Cn1cnnc1C1CCCN(C(=O)c2ccccn2)C1 (stereo not drawn) ; retrieve measured Percent Effect.
Output line: 140.5

Input line: Param item = Cc1ccc(S(N)(=O)=O)cc1C(=O)NC1CCN(C2CC2)CC1 ; retrieve measured Percent Effect.
Output line: 102.7

Input line: Param item = Cn1cnnc1C1CCCN(C(=O)NCCc2ccccn2)C1 (stereo not drawn) ; retrieve measured Percent Effect.
Output line: -4.673

Input line: Param item = CC(C)N1CCCC2(CCN(C(=O)CCCn3cccn3)C2)C1=O (stereo not drawn) ; retrieve measured Percent Effect.
Output line: -14.27

Input line: Param item = Cc1ccc(S(N)(=O)=O)cc1C(=O)NCC1Cc2ccccc2O1 (stereo not drawn) ; retrieve measured Percent Effect.
Output line: 20.46

Input line: Param item = CC(C)(C)OC(=O)NCC1CCCCN1Cc1cccc(C(N)=O)c1 (stereo not drawn) ; retrieve measured Percent Effect.
Output line: -2.516

Input line: Param item = Cn1cnnc1C1CCCN(C(=O)c2cc(-c3ccccc3)on2)C1 (stereo not drawn) ; retrieve measured Percent Effect.
Output line: 103.3

Input line: Param item = Cc1ccccc1C(C)(C)CNC(=O)CCSc1nnnn1C ; retrieve measured Percent Effect.
Output line: -6.777

Input line: Param item = CC(C)OCCNC(=O)C1CCC(=O)N(C2CCCC2)C1 (stereo not drawn) ; retrieve measured Percent Effect.
Output line: -13.5

###

For each entry below, report its Percent Effect value.
System: Wolbachia pipientis
Experiment: Anti-Wolbachia Cell-Based Screen
Type: functional
Parameters: scale not given: in the data most compounds retested in dose-response had high values
Settings: 5 µM
About 13,000 (27%) of roughly 48,000 compounds showed an effect of 50% or more. This is one part of the list.
Field: numeric (%). Do not append units.

Input line: Param item = COC(=O)[C@H]1CCCCN1C(=O)c1cccc(-n2cccn2)c1 ; retrieve measured Percent Effect.
Output line: -1.168

Input line: Param item = Cc1cnn(CC2CCCCN2C(=O)c2cccc(C(N)=O)c2)c1 (stereo unspecified) ; retrieve measured Percent Effect.
Output line: 110.6

Input line: Param item = CNC(=O)[C@H]1C[C@@H]2CN(C(=O)c3cscn3)C[C@@H]2N1S(C)(=O)=O ; retrieve measured Percent Effect.
Output line: -14.13

Input line: Param item = O=C(NCc1ccccc1)N1CCC2(CC(=O)N(c3ccccc3)C2)C1 (stereo unspecified) ; retrieve measured Percent Effect.
Output line: 115.5

Input line: Param item = Cc1ccc(CN(CCCn2ccnc2)Cc2c[nH]cn2)s1.O=C(O)CC(O)(CC(=O)O)C(=O)O ; retrieve measured Percent Effect.
Output line: -8.779

Input line: Param item = CNC(=O)[C@H]1C[C@@H]2CN(C(=O)c3ccoc3)C[C@@H]2N1S(C)(=O)=O ; retrieve measured Percent Effect.
Output line: 83.29

Input line: Param item = Cc1ccoc1C(=O)N1CC[C@@]2(C[C@H](NS(C)(=O)=O)CCO2)C1 ; retrieve measured Percent Effect.
Output line: -10.72

Input line: Param item = Cc1ccc(CN2Cc3nnn(C)c3C(COCc3ccccn3)C2)s1.O=C(O)C(F)(F)F.O=C(O)C(F)(F)F (stereo unspecified) ; retrieve measured Percent Effect.
Output line: 95.33

Input line: Param item = CN(Cc1ccsc1)C(=O)c1ccc(S(=O)(=O)NC(C)(C)C)cc1 ; retrieve measured Percent Effect.
Output line: 98.59

Input line: Param item = c1cncc(CN(CCCn2ccnc2)CC2CCOC2)c1 (stereo unspecified) ; retrieve measured Percent Effect.
Output line: 114.4

Input line: Param item = Cn1cc(C(=O)Nc2ccc3c(c2)CN(C(=O)C2CC2)CC3)nn1 ; retrieve measured Percent Effect.
Output line: 116.9

Input line: Param item = Cc1cnn(CC2CCCN2C(=O)c2cccc(S(C)(=O)=O)c2)c1 (stereo unspecified) ; retrieve measured Percent Effect.
Output line: 115.2

Input line: Param item = COc1ccccc1CN(CCCn1ccnc1)CC1CCOC1.O=C(O)CC(O)(CC(=O)O)C(=O)O (stereo unspecified) ; retrieve measured Percent Effect.
Output line: 173.3

Input line: Param item = CNC(=O)[C@H]1C[C@@H]2CN(C(=O)c3occc3C)C[C@@H]2N1S(C)(=O)=O ; retrieve measured Percent Effect.
Output line: 100.3

Input line: Param item = Cn1nnc2c1C(COCc1ccccn1)CN(C(=O)c1cccs1)C2.O=C(O)C(F)(F)F (stereo unspecified) ; retrieve measured Percent Effect.
Output line: -3.747

Input line: Param item = COCCNS(=O)(=O)c1ccc(Cl)c(C(=O)N(C)Cc2ccsc2)c1 ; retrieve measured Percent Effect.
Output line: 14.25

Input line: Param item = CN(C)C(=O)Cc1ccc(NC(=O)c2cn(C)nn2)cc1 ; retrieve measured Percent Effect.
Output line: -4.709

Input line: Param item = Cc1cnn(CC2CCCCN2C(=O)c2cc(C(N)=O)cs2)c1 (stereo unspecified) ; retrieve measured Percent Effect.
Output line: 3.915

Input line: Param item = CC(=O)N1CCO[C@@H]2CN(S(=O)(=O)c3ccc(F)cc3)CC[C@@H]2C1 ; retrieve measured Percent Effect.
Output line: 115.5

Input line: Param item = O=C(NCc1ccccc1)N1CCC2(CC(=O)N(c3ccsc3)C2)C1 (stereo unspecified) ; retrieve measured Percent Effect.
Output line: -8.501

Input line: Param item = Cc1nc(C)n(CCCn2ccnc2-c2cc3n(n2)CCCNC3)n1 ; retrieve measured Percent Effect.
Output line: 0.4256

Input line: Param item = CN(Cc1ccsc1)C(=O)c1cccc(S(=O)(=O)NC(C)(C)C)c1 ; retrieve measured Percent Effect.
Output line: 0.007999

Input line: Param item = Cn1cc(C(=O)Nc2ccc(CC(=O)NC3CC3)cc2)nn1 ; retrieve measured Percent Effect.
Output line: -0.7616

Input line: Param item = Cn1cc(C(=O)Nc2ccc3c(c2)CN(C(=O)c2ccco2)CC3)nn1 ; retrieve measured Percent Effect.
Output line: 12.57

Input line: Param item = Fc1ccccc1CN(CCCn1ccnc1)CC1CCOC1.O=C(O)CC(O)(CC(=O)O)C(=O)O (stereo unspecified) ; retrieve measured Percent Effect.
Output line: 96.39

Input line: Param item = O=C1NCC2(CCCN(C(=O)c3ccc4c(c3)CCCO4)CC2)O1 (stereo unspecified) ; retrieve measured Percent Effect.
Output line: 15.15

Input line: Param item = CC(=O)N1CCc2ccc(NC(=O)c3cn(C)nn3)cc2C1 ; retrieve measured Percent Effect.
Output line: 105.1

Input line: Param item = O=C(NCCCn1ccnc1)C1COCC(=O)N1Cc1ccccc1 (stereo unspecified) ; retrieve measured Percent Effect.
Output line: -1.911

Input line: Param item = CC(C)c1nsc(NC2CC(=O)N(C(C)(C)C)C2)n1 (stereo unspecified) ; retrieve measured Percent Effect.
Output line: 1.592

Input line: Param item = O=C(c1ccoc1)N1C[C@@H]2CN(c3ncccn3)C[C@@H]2C1 ; retrieve measured Percent Effect.
Output line: -12.12

Input line: Param item = CNC(=O)[C@H]1C[C@@H]2CN(C(=O)c3ccc(C)o3)C[C@@H]2N1S(C)(=O)=O ; retrieve measured Percent Effect.
Output line: 94.93

Input line: Param item = CNC(=O)[C@H]1C[C@@H]2CN(C(=O)c3ccco3)C[C@@H]2N1S(C)(=O)=O ; retrieve measured Percent Effect.
Output line: 10.85

Input line: Param item = CN1CCO[C@@H]2CN(S(=O)(=O)c3ccc(F)cc3)CC[C@@H]2C1.O=C(O)C(F)(F)F ; retrieve measured Percent Effect.
Output line: -6.683

Input line: Param item = CNC(=O)[C@H]1C[C@@H]2CN(C(=O)c3ccsc3)C[C@@H]2N1S(C)(=O)=O ; retrieve measured Percent Effect.
Output line: 104.8

Input line: Param item = CN(Cc1cccnc1)CC1CCOc2ccccc2C1 (stereo unspecified) ; retrieve measured Percent Effect.
Output line: 1.385

Input line: Param item = CCN(CC)C(=O)C1CCCN1C(=O)c1cccc(-n2cnnn2)c1 (stereo unspecified) ; retrieve measured Percent Effect.
Output line: 98.96

Input line: Param item = CN(Cc1ccsc1)C(=O)c1ccc(F)c(NS(C)(=O)=O)c1 ; retrieve measured Percent Effect.
Output line: 0

Input line: Param item = Cn1ccc(C2CCCCN2C(=O)c2cccc(-n3cccn3)c2)n1 (stereo unspecified) ; retrieve measured Percent Effect.
Output line: -0.8494

Input line: Param item = Cn1cc(C(=O)Nc2ccc3c(c2)N(C(=O)c2ccco2)CC3)nn1 ; retrieve measured Percent Effect.
Output line: 115.2

Input line: Param item = Cc1cnn(CC2CCCN2C(=O)c2cccc(CC#N)c2)c1 (stereo unspecified) ; retrieve measured Percent Effect.
Output line: -7.7

Input line: Param item = Cc1ccc(CN2Cc3nnn(C)c3C(COCc3ccccc3)C2)s1.O=C(O)C(F)(F)F (stereo unspecified) ; retrieve measured Percent Effect.
Output line: 113.4
